# study.system: T1, human FLT3 protein (human, UniProt P36888 27-541, limits assumed)
# T1 construct: protein coated in the screening ELISA; also called ELISA FLT3
# assay.comment: colorimetric ELISA, signal over control wells lacking FLT3
reported.metric: FLT3/control (ratio)
A number alone suffices; assume ratio.

A selection of reference data follows.
{"binder": "FLL181 (VHH, llama anti-FLT3 variable domain; E. coli periplasmic extract) VHH: QVQLQESGGGLVQAGDSLRLSCAASGVTFSASYIDWYRQAPGNEREWVAQITRGGDSFYADSVKGRFAISRDNAKNTVYLQMNSLKPEDTAVYYCRVLSYWGQGTQVTVSS", "FLT3/control, ratio": 5}
{"binder": "FLL170 (VHH, llama anti-FLT3 variable domain; E. coli periplasmic extract) VHH: QVQLQESGGGLVQAGGSLRLSCAVSGRTFSGFGTGWFRQAPGKEREFVAAISWSGGTTHYADSVKGRFTISRDNAKNTVYLQMNSLKPEDTAVYYCAGQVARAYDSSWYSRGDYWGQGTQVTVSS", "FLT3/control, ratio": 38}
{"binder": "FLL187 (VHH, llama anti-FLT3 variable domain; E. coli periplasmic extract) VHH: QVQLQESGGGLVQPGGSLRLSCAASGVTFSINYIDWYRQAPGKQREWVAQITRDSNSFYADSVKGRFAISRENAKNTVYLQMNSLKPEDTAVYYCRVLSYWGQGTQVTVSS", "FLT3/control, ratio": 18}
{"binder": "FLL38 (VHH, llama anti-FLT3 variable domain; E. coli periplasmic extract) VHH: QVQLQESGGGLVQAGGSLRLSCAVSGRTFSGFGTGWFRQAPGKEREFVAAVSWSGGTTEIADSVKGRFTISRDNAKNTVYLQMSSLKPGDTAVYYCAGQVARAYDSRWYSRGDYWGQGTQVTVSS", "FLT3/control, ratio": 45}
{"binder": "FLL97 (VHH, llama anti-FLT3 variable domain; E. coli periplasmic extract) VHH: QVQLQESGGGLVQAGGSLRLSCAASGVTFSINYIDWYRQAPGKQREWVAQITRDSNSFYADSVKGRFAVSRDNAKNTVYLQMNSLKPEDTAVYYCRVLSYWGQGTQVTVSS", "FLT3/control, ratio": 7}

Reported FLT3/control ( FLL553 (VHH, llama anti-FLT3 variable domain; E. coli periplasmic extract) VHH: QVQLQESGGGLVQAGGSLRLSCAVSGRTFSGFGTGWFRQAPGKEREFVAAISWSGGTTHYADSVKGRFTISRDNAKNTVNLVYLQMNSLRPEDTAVYYCAGQVARAYDSNWYSRGDYWGQGTQVTVSS ) = 37

Reported FLT3/control ( FLL39 (VHH, llama anti-FLT3 variable domain; E. coli periplasmic extract) VHH: QVQLQESGGGLVQAGGSLRLSCAASGLTSSTYRMAWFRQAPGKEREFAAGISYSADSGGSTNYADSVKGRFTISRDNAKNTVYLQMSSLKPEDTAVYYCAAGRYSGTYNSPYSSSYVYWGQGTQVTVSS ) = 12

Reported FLT3/control ( FLL6 (VHH, llama anti-FLT3 variable domain; E. coli periplasmic extract) VHH: QVQLQESGGGLVQAGGSLRLSCAVSGRTFSGFGTGWFRQAPGKEREFVAAISWDGGRTHYADSVKGRFTISRDNAANTVYLQMNSLKPEDTAVYYCAGQVSRAYDSMWYGRDDYWGQGTQVTVSS ) = 16

Reported FLT3/control ( FLL102 (VHH, llama anti-FLT3 variable domain; E. coli periplasmic extract) VHH: QVQLQESGGGLVQAGGSLMVSCAASGGTWSSYATGWFRQVPGKERKLIAGISRSGGRTYYAESVKGRFTISRDNAKNTVYLQMNTLKPDDTAVYYCAAARYFTSSVVYTSGNDYDYWGQGTQVTVSS ) = 37

Reported FLT3/control ( FLL143 (VHH, llama anti-FLT3 variable domain; E. coli periplasmic extract) VHH: QVQLQESGGGLVQAGGSLRLSCAVSGRTFSGFGTGWFRQAPGKEREFVAAISWVGGRTHYADSVKGRFTISRDNAKNTVYLQMNSLKPEDTAVYYCAAQVARAYDGNWYSGGDYWGQGTQVTVSS ) = 47

Reported FLT3/control ( FLL188 (VHH, llama anti-FLT3 variable domain; E. coli periplasmic extract) VHH: QVQLQESGGGLVQAGGSLGLSCAVSGRTFSGFGTGWFRQPPEKEREFVAAISWDGGRTHYADSVKGRFTISRDNAKNTVFLQMNSLKPEDTAVYYCAAQVARAYDSRWYSGGDYWGQGTQVTVSS ) = 51
